tested on: N5-12G6 riboswitch; experiment: Firefly luciferase assay, N5-12G6 riboswitch in HEK293 cells; settings: Homo sapiens, HEK293, read-out: Fold induction 2 μM (HEK), 12G6 riboswitch, luciferase, HEK293, 2 μM
Response key: class 1 means fold induction at 2 µM >= 5; class 0 means fold induction at 2 µM < 5.

Past entries and their recorded results:
C[C@H]1CNCCN1c1ccncc1NCc1cc2nccnc2cc1Cl : class 0
Clc1cc2nccnc2cc1CNc1cncc(Cl)c1O[C@@H]1CCNC1 : class 1

Assess whether reported fold induction at 2 µM for "Clc1cc2nccnc2cc1CNc1cnccc1O[C@@H]1CCNC1" sits at 5 or higher. class 1

Assess whether reported fold induction at 2 µM for "c1cc(N2CC3(CNC3)C2)c(NCc2ccc3nccnc3c2)cn1" sits at 5 or higher. class 0

Assess whether reported fold induction at 2 µM for "Clc1cc(CNc2cnccc2N2CCCNCC2)cc2nccnc12" sits at 5 or higher. class 0

Assess whether reported fold induction at 2 µM for "C[C@@H]1CNCCN1c1ccncc1NCc1cc2nccnc2cc1F" sits at 5 or higher. class 0

Assess whether reported fold induction at 2 µM for "C[C@@H]1CNCCN1c1c(Cl)cncc1NCc1ccc2nccnc2c1" sits at 5 or higher. class 1

Assess whether reported fold induction at 2 µM for "Cc1cncc(NCc2ccc3nccnc3c2)c1O[C@@H]1CCNC1" sits at 5 or higher. class 1

Assess whether reported fold induction at 2 µM for "C[C@H]1CN(c2ccncc2NCc2cc(F)c3nccnc3c2)CCN1" sits at 5 or higher. class 1
